System: T47D
assay details: NCI tumour cell line growth inhibition, 48 h
The source made the active and inactive calls. Rule as the data show it: active = GI50 up to about 1.1 µM and inactive = higher.
Quick list: GI50 per entry.

compound=O=C(O)/C(=C\c1ccc(O)cc1)c1cccc2ccccc12 result="> 100 µM (inactive)"

Query: I am curious: what GI50 value has been reported for Cc1ccc([N+](=O)[O-])cc1S(=O)(=O)Nc1ccc(C2=NN(S(=O)(=O)c3cc([N+](=O)[O-])ccc3C)C(c3ccccc3)C2)cc1 (configuration not stated) ?
Result: 41.4 µM (inactive)

Query: What does the data say about its GI50? Entry: N#CCCN(C(=O)Nc1ccc(NC(=O)N(CCC#N)c2ccccc2)cc1)c1ccccc1
Result: > 100 µM (inactive)

Query: Could you tell me which GI50 is on file for COC(=O)C1SC(N(C)c2ccccc2)=NC12c1ccccc1Nc1ccccc12 (configuration not stated) ?
Result: 15.7 µM (inactive)

Query: Consider the compound COc1cc(C2c3cc4c(cc3OC(N3CCOCC3)C2C)OCO4)cc(OC)c1OC(C)=O (configuration not stated) and give its measured GI50.
Result: 17.4 µM (inactive)

Query: Requested read-out: GI50. Entry: COc1ccc2c(=O)c(O)c(-c3ccc(OC)c(OC)c3)oc2c1
Result: > 100 µM (inactive)

Query: May I ask what GI50 has been recorded for O=c1c2ccccc2n2nnc3ccc(NCCNCCO)c1c32 ?
Result: 5.82 µM (inactive)

Query: Give the measured GI50 of CNC(=S)/C(C#N)=C(\N)N1CCCC1 .
Result: 57.5 µM (inactive)

Query: Reported GI50, compound CC(C)(C)OC(=O)n1cc(C2CN(O)C(=O)C23CCC(=O)N3Cc2ccccc2)c2ccccc21 (configuration not stated) : ____
Result: 50.6 µM (inactive)

Query: Request the reported GI50 associated with O=c1oc2c/c(=C\c3ccccc3)c(=O)c3cccc1c3-2
Result: 27.3 µM (inactive)
